Ref: patent US20220306695A1

# studyTarget: Human C3 (human, UniProt P01024 23-1663)
# Sequence (P01024 23-1663 limits assumed): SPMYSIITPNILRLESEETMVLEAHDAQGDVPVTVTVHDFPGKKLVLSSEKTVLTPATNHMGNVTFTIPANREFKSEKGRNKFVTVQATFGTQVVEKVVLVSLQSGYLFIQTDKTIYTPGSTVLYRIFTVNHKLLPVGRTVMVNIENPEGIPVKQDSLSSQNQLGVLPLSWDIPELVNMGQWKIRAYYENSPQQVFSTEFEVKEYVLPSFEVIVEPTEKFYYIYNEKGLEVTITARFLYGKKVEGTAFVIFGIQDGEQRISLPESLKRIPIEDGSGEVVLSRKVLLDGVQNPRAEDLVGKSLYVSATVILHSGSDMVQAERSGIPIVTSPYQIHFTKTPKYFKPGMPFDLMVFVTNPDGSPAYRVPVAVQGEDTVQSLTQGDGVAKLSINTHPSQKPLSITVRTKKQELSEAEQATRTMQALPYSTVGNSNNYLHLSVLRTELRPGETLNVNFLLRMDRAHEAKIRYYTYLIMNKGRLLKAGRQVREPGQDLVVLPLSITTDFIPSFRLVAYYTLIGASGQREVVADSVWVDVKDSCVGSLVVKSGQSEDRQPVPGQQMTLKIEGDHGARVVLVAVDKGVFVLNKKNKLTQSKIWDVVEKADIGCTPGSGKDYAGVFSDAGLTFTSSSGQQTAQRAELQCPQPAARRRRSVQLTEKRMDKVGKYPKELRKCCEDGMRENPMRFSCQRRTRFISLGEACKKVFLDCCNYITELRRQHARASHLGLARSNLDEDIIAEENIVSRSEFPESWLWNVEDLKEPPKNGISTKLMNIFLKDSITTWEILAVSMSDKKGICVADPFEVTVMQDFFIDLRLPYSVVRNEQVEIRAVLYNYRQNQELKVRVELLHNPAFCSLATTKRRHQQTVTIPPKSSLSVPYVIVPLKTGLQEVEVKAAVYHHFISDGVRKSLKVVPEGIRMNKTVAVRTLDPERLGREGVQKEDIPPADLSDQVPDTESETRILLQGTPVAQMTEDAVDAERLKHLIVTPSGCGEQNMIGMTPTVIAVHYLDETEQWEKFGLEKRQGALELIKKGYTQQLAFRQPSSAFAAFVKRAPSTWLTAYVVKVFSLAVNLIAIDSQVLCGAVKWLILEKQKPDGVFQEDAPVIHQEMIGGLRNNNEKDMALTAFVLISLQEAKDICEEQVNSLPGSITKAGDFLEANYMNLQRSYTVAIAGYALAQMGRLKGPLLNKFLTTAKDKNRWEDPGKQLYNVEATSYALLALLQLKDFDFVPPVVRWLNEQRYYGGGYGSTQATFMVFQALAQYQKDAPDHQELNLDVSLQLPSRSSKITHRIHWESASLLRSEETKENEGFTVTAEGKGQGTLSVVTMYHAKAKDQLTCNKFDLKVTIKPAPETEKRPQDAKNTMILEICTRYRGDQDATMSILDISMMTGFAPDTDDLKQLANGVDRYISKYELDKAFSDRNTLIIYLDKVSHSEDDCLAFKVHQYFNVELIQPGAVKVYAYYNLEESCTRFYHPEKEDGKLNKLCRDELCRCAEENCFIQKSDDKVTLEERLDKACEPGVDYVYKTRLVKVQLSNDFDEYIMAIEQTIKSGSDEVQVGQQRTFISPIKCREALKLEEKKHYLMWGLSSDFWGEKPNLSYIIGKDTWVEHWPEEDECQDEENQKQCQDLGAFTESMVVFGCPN
# protocolDetails: cell-based or functional assay
Positions of bridges follow the written chain, without caps; N, C: chain ends. Non-standard residues stand in square brackets, D forms with d. Sar = CNCC(=O)O
measurementLabel: CP hemolysis IC50 (nM)

binder: Ac-EGSAICIWQDWGEHRC[Sar]E-NH2 (disulfide 6-16; SMILES CC[C@H](C)[C@H](NC(=O)[C@H](C)NC(=O)[C@H](CO)NC(=O)CNC(=O)[C@H](CCC(=O)O)NC(C)=O)C(=O)N[C@H]1CSSC[C@@H](C(=O)N(C)CC(=O)N[C@@H](CCC(=O)O)C(N)=O)NC(=O)[C@H](CCCNC(=N)N)NC(=O)[C@H](Cc2c[nH]cn2)NC(=O)[C@H](CCC(=O)O)NC(=O)CNC(=O)[C@H](Cc2c[nH]c3ccccc23)NC(=O)[C@H](CC(=O)O)NC(=O)[C@H](CCC(N)=O)NC(=O)[C@H](Cc2c[nH]c3ccccc23)NC(=O)[C@H]([C@@H](C)CC)NC1=O) [Compound 28]
measurementLabel: CP hemolysis IC50
outputUnit: nM
reportedResult: 88
